The reader will find reported Emax values listed item by item below.
Target: human PPARγ-LBD (Homo sapiens, UniProt P37231)
Construct: PPARγ-LBD (AAs 203–477 in isoform 1); made in house
Sequence (P37231 203-477 isoform P37231-2): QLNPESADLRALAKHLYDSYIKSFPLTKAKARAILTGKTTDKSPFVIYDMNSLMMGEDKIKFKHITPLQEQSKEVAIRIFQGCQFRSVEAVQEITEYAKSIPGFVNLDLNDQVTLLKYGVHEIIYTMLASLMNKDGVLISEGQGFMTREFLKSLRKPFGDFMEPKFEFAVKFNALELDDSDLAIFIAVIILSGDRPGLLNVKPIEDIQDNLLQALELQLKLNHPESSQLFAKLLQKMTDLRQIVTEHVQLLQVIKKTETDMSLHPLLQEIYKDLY
Experiment: TR-FRET coactivator recruitment assay, PPARγ-LBD
Format: biochemical
Conditions: read-out: PPARγ CBP % of GW1929 max response
reported-property: Emax (%)

INSERT INTO assay_data (compound, reported_property, reported_result) VALUES
  ('O=C(O)CCCc1cc2cc(Cl)ccc2n1S(=O)(=O)c1ccc2ncsc2c1 [Lanifibranor, lanifibranor]', 'Emax', 83.3),
  ('CC(C)(Oc1ccc(CCNC(=O)c2ccc(Cl)cc2)cc1)C(=O)O [Bezafibrate, bezafibrate]', 'Emax', 68.7),
  ('CC[C@@H](Oc1cccc(CN(CCCOc2ccc(OC)cc2)c2nc3ccccc3o2)c1)C(=O)O [Pemafibrate, pemafibrate]', 'Emax', 80.3);

These entries and their values trace back to paper PMC10967972.
